Molecular target: T1, VEGFR-3-Fc (UniProt P35916 25-328)
T1 construct: domain: first three Ig domains; conditioned supernatant of 293T cells; also called VEGFR-3-Fc fusion protein; not shown: Fc fragment of the pIg vector
T1 sequence (looked up): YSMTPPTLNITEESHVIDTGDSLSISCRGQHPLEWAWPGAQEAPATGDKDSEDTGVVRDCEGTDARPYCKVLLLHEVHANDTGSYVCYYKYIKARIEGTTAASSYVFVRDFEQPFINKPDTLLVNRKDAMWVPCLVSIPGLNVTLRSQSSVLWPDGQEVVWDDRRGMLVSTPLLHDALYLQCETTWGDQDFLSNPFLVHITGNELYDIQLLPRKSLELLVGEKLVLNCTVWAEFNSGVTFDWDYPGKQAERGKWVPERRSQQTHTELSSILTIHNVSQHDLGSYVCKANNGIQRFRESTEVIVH
Test: receptor-Fc IP
quantity: binding result

>  <binder>
24-10 (ligand) AHYNTEILKSIDNEWRKTQCMPREVCIDVGKEFGVATNTFFKPSCVPLMRCGGCCNDEGLECMNTSTSYLSKTLFEITVPLSQGPKPVTISFLQHNKCECRPKKD

>  <quantity>
binding result

>  <test.result>
no binding

$$$$
>  <binder>
82-16 (ligand) AHYNTEILKFMDVYQRSYCHPIETLVDIFQEFGVATNTFFKPPCVSVYRCGGCCNSEGLQCMNTSTSYLSKTLFEITVPLSQGPKPVTISFANHTSCRCMSKLD

>  <quantity>
binding result

>  <test.result>
binds

$$$$
>  <binder>
71-4 (ligand) GQNHHEVVKSIDNEWRKTQCMPREVCIDVGKEYPDEIEYIFKPSCVPLMRCGGCCNSEGLQCMNTSTSYLSKTLFEIKPHQGQHIGEMSFLQHNKCECRPKKD

>  <quantity>
binding result

>  <test.result>
no binding

$$$$
>  <binder>
61-10 (ligand) GQNHHEVVKFMDVYQRSYCHPREVCIDVGKEYPDEIEYIFKPSCVPLMRCGGCCNDEGLECMNTSTSYLSKTLFEITVPLSQGPKPVTISFLQHNKCECRPKKD

>  <quantity>
binding result

>  <test.result>
no binding

$$$$
>  <binder>
22-16 (ligand) AHYNTEILKSIDNEWRKTQCMPREVCIDVGKEFGVATNTFFKPPCVSVYRCGGCCNSEGLQCMNTSTSYLSKTLFEITVPLSQGPKPVTISFANHTSCRCMSKLDLVFEQKLISEEDLNSAVDHHHHHH

>  <quantity>
binding result

>  <test.result>
binds

$$$$
>  <binder>
71-13 (ligand) GQNHHEVVKSIDNEWRKTQCMPREVCIDVGKEYPDEIEYIFKPSCVPLMRCGGCCNDEGLECVPTEESNITMQIMRITVPLSQGPKPVTISFANHTSCRCMSKLD

>  <quantity>
binding result

>  <test.result>
no binding

$$$$
>  <binder>
44-15 (ligand) AHYNTEILKFMDVYQRSYCHPREVCIDVGKEFGVATNTFFKPSCVPLMRCGGCCNSEGLQCVPTEESNITMQIMRITVPLSQGPKPVTISFANHTSCRCMSKLD

>  <quantity>
binding result

>  <test.result>
no binding

$$$$
>  <binder>
83-15 (ligand, clone entry) AHYNTEILKFMDVYQRSYCHPIETLVDIFQEYPDEIEYIFKPPCVSVYRCGGCCNSEGLQCVPTEESNITMQIMRITVPLSQGPKPVTISFANHTSCRCMSKLDL

>  <quantity>
binding result

>  <test.result>
no binding

$$$$
